The origin of these recorded values is PubChem BioAssay (NCI).

- System: SNB-75 CNS
- ASSAY METHOD TEXT: NCI tumour cell line growth inhibition, 48 h; in the data active = GI50 below about 0.43 µM; inactive = the rest
// classify into 1.0 (active), 0.0 (inactive)

Example cases with answers are listed next.
>>> df
                                   compound  label_class
0  CC12CCC3C(CCC4Cc5[nH]c6ccccc6c5CC43C)C1CCC2O (centres undefined)          0.0
1       CCCCON(OC(=O)c1ccccc1)C(=O)c1ccccc1          0.0

Look up the recorded call for COc1cc(C2c3[nH]c4ccccc4c3C[C@H]3COC(=O)N23)cc(OC)c1OC (some centres undefined) in this test.
1.0

Dear colleague, could you share the recorded outcome for C=CC[n+]1c(/C=C/C=C2\N(C)c3ccccc3C2(C)C)sc2ccc(OC)cc21 when you have a moment?
1.0

---

- Tested on: OVCAR-5 ovarian
- ASSAY METHOD TEXT: NCI tumour cell line growth inhibition, 48 h
QUANTITY KIND: TGI

Solved cases below.
In [3]: df
Out[3]:
                                   molecule   measured
0             CN(C)c1ccc2c(=O)c3ccccc3oc2n1   > 100 µM
1             O=c1cc(NCCCCCO)[nH]c(=O)[nH]1   > 100 µM
2  CN(C)C(Cc1cnc[nH]1)C(=O)N1CCCC1C(N)=O (stereo unspecified)   > 100 µM
3                                         F  > 6870 µM
4  C=CCN1CCC(OC(=O)C(O)(C#CC)C2CCCC2)CC1 (stereo unspecified)   > 100 µM

Turning now to a further record.
Supply TGI value. Item: CCOC(=O)CN1C(=O)c2c(c(C)n(-c3ccccc3)c2C)C1=O
> 100 µM

---

- Tested on: HCT-116 colon
- ASSAY METHOD TEXT: NCI tumour cell line growth inhibition, 48 h
Kindly supply the reported TGI values for the records listed here.

>>> print(df.to_string())
                                   compound  measured
0  Clc1ccc(CSC(Cn2ccnc2)c2ccc(Cl)cc2Cl)cc1 (stereo not drawn)   2510 nM
1  CCSCC1CC(O)(c2ccccc2)C(c2ccccc2)C(c2ccc(Cl)cc2)O1 (stereo not drawn)   2580 nM

Now for the compound whose TGI we want.
Indicate its recorded TGI; the compound in question is CCCCC[C@H](O)/C=C/[C@@H]1[C@@H](C/C=C\CCCC(=O)O)[C@@H](O)C[C@H]1O
> 100000 nM

---

- Test system: NCI-H460 lung
- ASSAY METHOD TEXT: NCI tumour cell line growth inhibition, 48 h
QUANTITY KIND: TGI (µM)
Answers are plain numbers, in µM.

COMPOUND	UNITS	TGI
CC1=NCCN=C(C)C1N=Nc1ccc2nc(C)[nH]c2c1	µM	52.1
COc1ccc(/C=C2\CCCC(CN(C)C)C2=O)cc1 (centres undefined)	µM	48.4
NNC(=O)CSc1nc2ccc(I)cc2c(=O)n1Cc1ccccc1	µM	44.7

Now for a further compound.
Query TGI for C/C=C/[C@H]1O[C@@](O)([C@@H](C)[C@H](O)[C@H](C)[C@H]2OC(=O)/C(OC)=C/C(C)=C/[C@@H](C)[C@@H](O)[C@@H](CC)[C@@H](O)[C@H](C)C/C(C)=C/C=C/[C@@H]2OC)C[C@H](OC2CC(O)C(O)C(C)O2)[C@@H]1C (some centres undefined)
4.81

---

- System: RPMI-8226 leukemia
- ASSAY METHOD TEXT: NCI tumour cell line growth inhibition, 48 h
QUANTITY KIND: TGI

Here's what some known entries look like.
                                   compound  quantity_kind  measured
0             O=c1cc(NCCCCCO)[nH]c(=O)[nH]1            TGI  > 100 µM
1  CC(C)(C)OC1=C(OC(C)(C)C)C(O)(c2ccccc2)C1=O (stereo unspecified)            TGI  > 100 µM
2          CS(=O)(=O)c1ccc(/C=N/NC(N)=S)cc1            TGI  > 100 µM
3  COC(=O)C1=C(c2ccc(OC)c(OC)c2)OC(c2ccc(OC)c(OC)c2)C1 (stereo unspecified)            TGI  > 100 µM
4             N#Cc1c(N2CCCC2)nsc1NCc1ccccc1            TGI  > 100 µM

Quick one: give measured TGI for CC(=O)N[C@@H](Cc1ccc(OP(=O)(O)O)cc1)C(=O)N[C@H]1CCC(=O)N2CCC[C@@H](C(=O)NCc3ccc(Cl)cc3)N2C1=O
> 25 µM

---

- Test system: MALME-3M melanoma
- ASSAY METHOD TEXT: NCI tumour cell line growth inhibition, 48 h; in the data active = GI50 below about 0.43 µM; inactive = the rest
Respond using exactly one of the listed classes: YES (active), NO (inactive)

In [3]: df
Out[3]:
                                   molecule  label_class
0  Clc1ccc(CSC(Cn2ccnc2)c2ccc(Cl)cc2Cl)cc1 (stereo not drawn)           NO
1  CC(=O)NCCc1c2c(c3nccc4c3c1Nc1ccccc1-4)OCS2           NO
2  N=C(N)c1ccc(OCc2cccc(COc3ccc(C(=N)N)cc3)c2)cc1           NO
3  CC1(C)N=C(N)N=C(N)N1c1cccc(CCCCc2cccc(S(=O)(=O)F)c2)c1           NO
4  COc1cc2c(cc1O)CC[C@@H]1[C@@H]2CC[C@]2(C)[C@@H](NCCN(C)C)CC[C@@H]12          YES

Called result for O=C1c2ccccc2-c2c1c1ccccc1c(=O)n2CCCCNCCCn1c2c(c3ccccc3c1=O)C(=O)c1ccccc1-2
NO

I'd appreciate the recorded outcome for O=C(NC1CCN(Cc2ccccc2)CC1)c1cc(-c2ccncc2)nc2ccc(Cl)cc12 from this test.
NO

Check the results log: what was the call for COC(=O)CCC(=O)C(=O)OC ?
NO

---

- Test system: OVCAR-8 ovarian
- ASSAY METHOD TEXT: NCI tumour cell line growth inhibition, 48 h
*1 amine or outer side, *2 acyl side, *3 side chain or, on linkers, in order; H or OH if unused. Where a SMILES comes first, the peptide text is derived from it. [ ]: non-standard residue; d: D form. The star is where a group is joined. X31 = CC(=O)N(C)SCC(N[*:1])C(=O)[*:2]; X47 = CC(=O)N(C)SCC(N*)/C(O)=N\O; Cbz = O=C(OCc1ccccc1)*; Bn = c1ccc(C*)cc1; For = O=C*
Mark class 0 for TGI values under 5 µM, and class 1 for everything at or above.

COMPOUND	LABEL CLASS
CS(=O)(=O)c1ccc(/C=N/NC(N)=S)cc1	class 1
OCC1OC(n2nc(-c3ccccc3)nc2-c2cnccn2)C(O)C(O)C1O (configuration not stated)	class 1
CCSCC1CC(O)(c2ccccc2)C(c2ccccc2)C(c2ccc(Cl)cc2)O1 (configuration not stated)	class 1

Exam item: decide whether the reported TGI for Clc1ccc(CSC(Cn2ccnc2)c2ccc(Cl)cc2Cl)cc1 (configuration not stated) is at least 5 µM.
class 0

Decide: is the reported value of TGI for CC(=O)N(C)SCC(NC(=O)C(Cc1ccccc1)NC(=O)OCc1ccccc1)C(=O)NC(Cc1ccccc1)C(=O)NC(Cc1cn(C=O)c2ccccc12)C(=O)NC(CCCCNC(=O)OCc1ccccc1)C(=O)NC(C(=O)NC(CSN(C)C(C)=O)/C(O)=N\O)C(C)OCc1ccccc1 (configuration not stated) (Cbz-F[X31]FW(For)K(Cbz)T(Bn)-X47; configuration not given here) equal to or greater than 5 µM?
class 1

---

Hi there, I'd appreciate the recorded TGI for every entry that follows.
- System: LXFL 529 NSCLC
- ASSAY METHOD TEXT: NCI tumour cell line growth inhibition, 48 h
Answers are plain numbers, in µM.

Some molecules with recorded TGI:
In [3]: df
Out[3]:
                                   molecule  measured
0  COC(=O)[C@@]12C(=O)C=CC(=O)[C@@H]1C1C(=CC2COC(C)=O)O[C@@H]2OC3(CCCCC3)O[C@H]12 (stereo partly specified)        15
1  CS/C(=N\C(=S)N(C)C)N(c1ccccc1)c1nc(=[N+](C)C)ss1      15.9

Kindly review the next molecule as well.
Identify measured TGI associated with Cc1c2cc[n+](C)cc2c(C)c2c1sc1ccccc12
5.13

---

- Test system: MCF7 breast
- ASSAY METHOD TEXT: NCI tumour cell line growth inhibition, 48 h
Where a SMILES comes first, the peptide text is derived from it. The star is where a group is joined. Boc = CC(C)(C)OC(=O)*; Bz = O=C(c1ccccc1)*
Hi there, I'd appreciate the recorded TGI for every entry that follows.

COMPOUND	QUANTITY KIND	MEASURED
CC(NC(=O)C(Cc1ccc(OC(=O)c2ccccc2)cc1)NC(=O)OC(C)(C)C)C(=O)NC(Cc1ccccc1)C(=O)NCC(N)=O (stereo not drawn) (Boc-Y(Bz)AFG-NH2; configuration not given here)	TGI	40.8 µM
COc1cc2c(/C=C3/C(=O)N(C)c4ccccc43)c(Cl)[nH]c2cc1C	TGI	> 23.5 µM
CCS(=O)(=O)N1CCC(C(C)n2c(C)c(C(=O)NCc3c(OC)cc(C)[nH]c3=O)c3ccccc32)CC1 (stereo not drawn)	TGI	> 100 µM
COc1ccc(/C=C2\CCCC(CN(C)C)C2=O)cc1 (stereo not drawn)	TGI	1.45 µM
CCCCCCCC1C(C)c2c([nH]c3ccccc23)C2C(=O)N(c3ccc(OC)cc3)C(=O)C21 (stereo not drawn)	TGI	> 10 µM
Cc1ccc(S(=O)(=O)OC2CCN(C)CC2)cc1	TGI	> 100 µM
C/C(=N\NC(=O)c1sc(=S)n(C)c1N)c1cc2ccccc2o1	TGI	30.4 µM
Cc1ccc(-c2nc(C)c(C(=O)Nc3ccc(Cl)cc3)s2)cc1	TGI	> 100 µM
CC1CC(C)C(O)C(C2CC(CC(=O)NC3CCCCC3)CC(=O)O2)C1 (stereo not drawn)	TGI	> 100 µM
Cc1c(N2CCCC2)cc2c(c1NC(=O)c1ccccc1Cl)C(C)(C)CC2(C)C	TGI	28.4 µM

Return reported TGI values for all items listed beneath this line.
1. Nc1cc2c3c(c1)Oc1cc(N)cc4c1C3c1c(cc(N)cc1O4)O2
2. CC1(C)CC(=O)C(CCC(=O)/C=C/c2ccccc2)C(=O)C1
3. COc1ccc(/C=C2\CCC(C)C3=C(c4ccc(OC)c(OC)c4)C(C#N)=C(N)OC32)cc1OC (stereo not drawn)

1. > 60 µM
2. > 100 µM
3. 19.5 µM
